The entries below come with measured melting point values attached.

Look over these answered cases.
- COc1cc2nccc(Oc3ccc(NS(=O)(=O)c4cc(F)ccc4F)cc3OC)c2cc1OC: 222 to 224 °C
- COc1cc2nccc(Oc3ccc(NS(=O)(=O)c4cccc(Br)c4)c(F)c3)c2cc1OC: 255 to 257 °C
- COc1cc2c(Oc3ccc(NS(=O)(=O)c4cc(F)ccc4F)cc3F)ccnc2cc1OCCCN1CCC(C)CC1: 223 to 225 °C

For COc1cc2c(Oc3ccc(NS(=O)(=O)c4ccccc4C#N)cc3F)ccnc2cc1OCCCN1CCC(C)CC1 , write its melting point.
139 to 142 °C

For COc1cc2nccc(Oc3ccc(NS(=O)(=O)c4ccc5c(c4)CC(=O)N5C)c(C)c3)c2cc1OC , write its melting point.
115 to 116 °C

For COc1cc2nccc(Oc3ccc(NS(=O)(=O)c4cccc(OC(F)(F)F)c4)c(F)c3)c2cc1OC , write its melting point.
221 to 223 °C

For Cc1cc(Oc2ccc(NS(=O)(=O)c3cc(Cl)cc(Cl)c3O)cc2)c2cc(F)ccc2n1 , write its melting point.
203 to 205 °C

====

The entries below come with measured melting point values attached.

Look over these answered cases.
• COc1cc2nccc(Oc3ccc(NS(=O)(=O)c4cccc5ccccc45)cc3C)c2cc1OC = 118 to 120 °C
• COc1cc2c(Oc3ccc(NS(=O)(=O)c4ccccc4OC(F)(F)F)cc3F)ccnc2cc1OCCCNC(=O)OC(C)(C)C = 181 to 183 °C

For COc1cc2nccc(Oc3ccc(NS(=O)(=O)c4cccc(Oc5ccccc5)c4)cc3C)c2cc1OC , write its melting point.
115 to 117 °C

For COc1cc2nccc(Oc3ccc(NS(=O)(=O)c4ccc(F)c(F)c4F)c(F)c3)c2cc1OC , write its melting point.
188 to 190 °C

====

The entries below come with measured IC50 values attached.
biological target: wild type AXL (wtAXL) receptor tyrosine kinase (Homo sapiens); construct: WtAXL cDNA was cloned into vector pLXSN(ESK) and transfected into Phoenix E packaging cells; test: NIH-3T3-AXL cellular tyrosine kinase assay (inhibition of AXL phosphorylation); conditions: AXL phosphorylation in NIH-3T3-AXL (clone 22) cells, serum-depleted, 2 h with compound, immunoprecipitation / anti-phosphotyrosine blot
Sequence (P30530 26-894): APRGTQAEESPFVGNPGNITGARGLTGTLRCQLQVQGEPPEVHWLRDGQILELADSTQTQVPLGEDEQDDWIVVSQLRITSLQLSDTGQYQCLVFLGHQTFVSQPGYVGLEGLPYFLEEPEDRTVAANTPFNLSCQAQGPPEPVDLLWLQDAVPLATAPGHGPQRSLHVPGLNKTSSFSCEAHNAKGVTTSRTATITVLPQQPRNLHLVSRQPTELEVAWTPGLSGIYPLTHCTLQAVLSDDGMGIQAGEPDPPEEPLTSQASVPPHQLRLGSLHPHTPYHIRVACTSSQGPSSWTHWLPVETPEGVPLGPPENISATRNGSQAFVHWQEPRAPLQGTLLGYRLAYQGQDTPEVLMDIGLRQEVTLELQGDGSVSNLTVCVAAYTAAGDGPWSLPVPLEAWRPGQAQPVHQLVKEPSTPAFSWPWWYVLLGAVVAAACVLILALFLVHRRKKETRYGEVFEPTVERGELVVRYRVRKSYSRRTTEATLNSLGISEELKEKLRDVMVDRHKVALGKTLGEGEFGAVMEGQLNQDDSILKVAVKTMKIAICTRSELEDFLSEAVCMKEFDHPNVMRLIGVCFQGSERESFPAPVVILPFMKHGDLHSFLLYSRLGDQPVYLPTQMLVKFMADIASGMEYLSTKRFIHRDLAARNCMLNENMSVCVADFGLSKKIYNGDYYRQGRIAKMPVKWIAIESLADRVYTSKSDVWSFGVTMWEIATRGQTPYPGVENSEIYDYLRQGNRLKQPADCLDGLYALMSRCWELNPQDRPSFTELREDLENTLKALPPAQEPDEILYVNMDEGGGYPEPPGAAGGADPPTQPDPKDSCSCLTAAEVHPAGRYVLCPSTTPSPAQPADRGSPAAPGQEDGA

Look over these answered cases.
* COc1cc2nccc(Oc3ccc(NS(=O)(=O)c4cc(Cl)c(O)c(Cl)c4)cc3)c2cc1OC | > 3 µM
* COc1cc2nccc(Oc3ccc(NS(=O)(=O)c4ccc(C(F)(F)F)cc4Br)c(F)c3)c2cc1OC | > 10 µM
* COc1cc2nccc(Oc3ccc(NS(=O)(=O)c4cccc(-c5ncccn5)c4)cc3F)c2cc1OC | > 1 µM
* COc1cc2nccc(Oc3ccc(NS(=O)(=O)c4ccc(-c5ccccc5)cc4)cc3)c2cc1OC | > 10 µM
* COc1cc2c(Oc3ccc(NS(=O)(=O)c4c(F)cccc4F)cc3F)ccnc2cc1OCCCN1CCCC(C)C1 (stereo not shown) | 0.042 µM
* COc1cc2nccc(Oc3ccc(NS(=O)(=O)c4ccc(Br)c(Cl)c4)c(F)c3)c2cc1OC | 0.8 µM
* COc1cc2nccc(Oc3ccc(NS(=O)(=O)c4ccc(Br)c(Cl)c4)cc3F)c2cc1OC | > 3 µM
* COc1cc2nccc(Oc3ccc(NS(=O)(=O)c4ccc(OC)c5ccccc45)cc3C)c2cc1OC | > 10 µM

For COc1cc2nccc(Oc3ccc(NS(=O)(=O)c4ccc(Br)c(Cl)c4)cc3)c2cc1OC , write its IC50.
> 10 µM

For COc1cc2nccc(Oc3ccc(NS(=O)(=O)c4cc(F)cc(F)c4)c(F)c3)c2cc1OC , write its IC50.
> 10 µM

For COc1cc2nccc(Oc3ccc(NS(=O)(=O)c4ccc(OC)c5ccccc45)c(C)c3)c2cc1OC , write its IC50.
> 10 µM

For COc1cc2nccc(Oc3ccc(NS(=O)(=O)c4cc(Cl)cc(Cl)c4OC)cc3C)c2cc1OC , write its IC50.
> 3 µM

For Cc1cc(Oc2ccc(NS(=O)(=O)c3cc(Cl)cc(Cl)c3)cc2)c2cc(F)ccc2n1 , write its IC50.
> 10 µM

For Cc1cc(Oc2ccc(NS(=O)(=O)c3ccccc3C(F)(F)F)c(F)c2)c2cccc(C(F)(F)F)c2n1 , write its IC50.
> 10 µM

For COc1cc2nccc(Oc3ccc(NS(=O)(=O)c4ccc(Br)s4)c(F)c3)c2cc1OC , write its IC50.
2.3 µM

For Cc1cc(Oc2ccc(NS(=O)(=O)c3ccc(F)c(Cl)c3)c(F)c2)c2cc(F)ccc2n1 , write its IC50.
> 10 µM

====

The entries below come with measured melting point values attached.

Look over these answered cases.
• COc1cc2c(Oc3ccc(NS(=O)(=O)c4ccc(F)cc4F)cc3F)ccnc2cc1OCCN1CCOCC1 = 189 to 191 °C
• CCCCS(=O)(=O)Nc1ccc(Oc2ccnc3cc(OC)c(OC)cc23)cc1F = 164 to 166 °C
• COc1cc2nccc(Oc3ccc(NS(=O)(=O)c4cccc5ccccc45)c(F)c3)c2cc1OC = 243 to 245 °C
• COc1cc2nccc(Oc3ccc(NS(=O)(=O)c4ccccc4F)c(F)c3)c2cc1OC = 235 to 236 °C
• COc1cc2nccc(Oc3ccc(NS(=O)(=O)c4ccccc4OC(F)(F)F)cc3C)c2cc1OC = 207 to 209 °C

For COc1cc2c(Oc3ccc(NS(=O)(=O)c4cccc(-c5ccccc5)c4)cc3F)ccnc2cc1OCCN1CCOCC1 , write its melting point.
103 to 104 °C

For COc1cc2nccc(Oc3ccc(NS(=O)(=O)c4ccccc4Br)c(F)c3)c2cc1OC , write its melting point.
225 to 227 °C

For COc1cc2nccc(Oc3ccc(NS(=O)(=O)c4cc(F)ccc4F)c(F)c3)c2cc1OC , write its melting point.
232 to 234 °C

====

Readout: melting point

- COc1cc2nccc(Oc3ccc(NS(=O)(=O)C4CC4)c(F)c3)c2cc1OC: 179 to 180 °C

For CCc1ccc(S(=O)(=O)Nc2ccc(Oc3ccnc4cc(OC)c(OC)cc34)cc2F)cc1 , write its melting point.
193 to 195 °C

For COc1cc2nccc(Oc3ccc(NS(=O)(=O)c4cccc(-c5ncccn5)c4)cc3)c2cc1OC , write its melting point.
194 to 195 °C

For COc1cc2c(Oc3ccc(NS(=O)(=O)c4c(F)cccc4F)cc3F)ccnc2cc1OCCCN1CCC(C)CC1 , write its melting point.
200 to 203 °C

For CCCS(=O)(=O)Nc1ccc(Oc2ccnc3cc(OCCCN4CCC(C)CC4)c(OC)cc23)c(F)c1 , write its melting point.
160 to 162 °C

For COc1cc2c(Oc3ccc(NS(=O)(=O)c4ccccc4F)cc3F)ccnc2cc1OCCCN1CCOCC1 , write its melting point.
179 to 181 °C

For COc1cc2nccc(Oc3ccc(NS(=O)(=O)c4ccc(Cl)cc4F)c(C)c3)c2cc1OC , write its melting point.
248 to 250 °C

For COc1cc2nccc(Oc3ccc(NS(=O)(=O)c4ccccc4OC(F)(F)F)c(F)c3)c2cc1OC , write its melting point.
204 to 206 °C

For COc1ccc(S(=O)(=O)Nc2ccc(Oc3cc(C)nc4c(C(F)(F)F)cccc34)c(F)c2)c2ccccc12 , write its melting point.
242 to 244 °C

For Cc1cc(Oc2ccc(NS(=O)(=O)c3cccc(C#N)c3)c(F)c2)c2cc(F)ccc2n1 , write its melting point.
190 to 191 °C

For COc1cc2nccc(Oc3ccc(NS(=O)(=O)c4cc(Cl)cc(Cl)c4OC)cc3F)c2cc1OC , write its melting point.
155 to 158 °C

For COc1cc2nccc(Oc3ccc(NS(=O)(=O)c4csc5ccccc45)cc3)c2cc1OC , write its melting point.
267 to 270 °C

For COc1cc2nccc(Oc3ccc(NS(=O)(=O)c4c(F)cccc4F)c(F)c3)c2cc1OC , write its melting point.
223 to 225 °C

For COc1cc2nccc(Oc3ccc(NS(=O)(=O)CC(C)C)c(F)c3)c2cc1OC , write its melting point.
175 to 176 °C

For COc1cc2nccc(Oc3ccc(NS(=O)(=O)c4ccc(OC)c5ccccc45)cc3F)c2cc1OC , write its melting point.
145 to 147 °C

For COc1cc2nccc(Oc3ccc(NS(=O)(=O)c4cccc(Oc5ccccc5)c4)cc3)c2cc1OC , write its melting point.
172 to 174 °C

====

Readout: melting point

Look over these answered cases.
• COc1cc2nccc(Oc3ccc(NS(=O)(=O)c4ccc(-c5ccccc5)cc4)c(F)c3)c2cc1OC = 199 to 201 °C
• Cc1cc(Oc2ccc(NS(=O)(=O)c3ccc(C)s3)c(F)c2)c2cc(F)ccc2n1 = 151 to 153 °C
• COC(=O)c1sccc1S(=O)(=O)Nc1ccc(Oc2cc(C)nc3ccc(F)cc23)cc1 = 160 to 161 °C
• COc1cc2nccc(Oc3ccc(NS(=O)(=O)c4cc(Br)cc(C(F)(F)F)c4)c(F)c3)c2cc1OC = 214 to 216 °C
• COc1cc2nccc(Oc3ccc(NS(=O)(=O)c4ccc(Br)c(Cl)c4)cc3)c2cc1OC = 232 to 234 °C

For COc1cc(S(=O)(=O)Nc2ccc(Oc3ccnc4cc(OCCCN5CCCC(C)C5)c(OC)cc34)c(F)c2)ccc1F (stereo not shown) , write its melting point.
98 to 101 °C

For COc1cc2nccc(Oc3ccc(NS(=O)(=O)c4cc(Cl)cc(Cl)c4O)cc3C)c2cc1OC , write its melting point.
113 to 117 °C
